Consider the following compounds; for each one, report its ASPARTATE AMINOTRANSFERASE.
species on record: Rattus norvegicus; assay: DrugMatrix - Regimen: Daily Repeat; type: toxicity, organism-based, Sprague-Dawley; set-up: regimen Daily Repeat, gender Male, age 6-8 weeks; conditions: in vivo, po, 1500 mg/kg, 72 h, tissue Plasma, route oral GAVAGE, dose level High, time 3 day, vehicle .5 % CMC
Please give a number only; it is taken to be in u/L.

### Prompt Retrieve ASPARTATE AMINOTRANSFERASE measured for COC(=O)c1ccc(O)cc1 and print it.
### Response 87

### Prompt Fill in ASPARTATE AMINOTRANSFERASE for record NS(=O)(=O)c1cc2c(cc1Cl)NCNS2(=O)=O [HYDROCHLOROTHIAZIDE]
### Response 88.33

### Prompt State its ASPARTATE AMINOTRANSFERASE: CCOC(=O)[C@H](CCc1ccccc1)N[C@@H](C)C(=O)N1[C@H](C(=O)O)C[C@@H]2CCC[C@@H]21
### Response 81.67

### Prompt Identify ASPARTATE AMINOTRANSFERASE associated with the compound O=C1CCc2cc(OCCCCc3nnnn3C3CCCCC3)ccc2N1
### Response 60.33
